- assayedSystem: T1, CD70 on cells (CHO-CD70, JVM-3, U266, Raji, THP-1, T cells) (human, UniProt P32970 1-193)
- T1 construct: whole, on cells; also called cell-surface CD70
- T1 sequence (looked up): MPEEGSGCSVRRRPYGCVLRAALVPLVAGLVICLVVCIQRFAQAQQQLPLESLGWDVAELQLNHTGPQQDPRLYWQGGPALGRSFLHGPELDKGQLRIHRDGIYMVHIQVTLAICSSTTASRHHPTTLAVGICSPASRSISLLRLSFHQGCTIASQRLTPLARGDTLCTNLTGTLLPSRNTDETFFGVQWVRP
- testProtocol: on Raji cells
Please go through the items and note down their cell binding.
Numbers only.

binder	valueType	testValue
9B2 (antibody, V domains shown) VH: QLQVVESGGGLMQPGGSLRLSCAASGFTFSGSAMSWVRQAPGKGLEWVSSIYSHSMYTYYADSVKSRFTISTDNAKNTLYLQMNSLKPDDTAVYYCAASSDYEGLFVSWGQGTQVTVSS VL: QAVLTQPPSLSASPGSSVRLTCTLNSANSVGSYDISWYQQKAGSPPRYLLYYYSDSLSHQGSGVPSRFSGSTDASANAGLLLISGLQPEDEADYYCSAYNRGSHVFGGGTKLTVL	cell binding	7310

[Q] Reported cell binding, binder 9A1 (antibody, V domains shown, alloy mouse hybridoma antibody; also called 9A1H6) VH: QVQLVQSGAEVKKPGASVKVSCKASGYSFTGYYMHWVRQAPGQGLEWMGWINPKSGGTSYAQQFQGRVTMTRDTSMSTVYMELTRLRADDTAVYYCARLYYSGWYGDYWGQGTLVTVSS VL: DIQMTQSPSSLSASVGDRVTITCQASQDINNYLNWYQQKPGKVPNLLIYDASNLETGVPSRFSGSGSGTDFTFTISSLQPEDIATYYCQQYNNPPITFGQGTRLEIK : ____
[A] 139000
